Biological target: T1, cSNK:BSA conjugate (bovine, head-to-tail cyclized; conjugated to BSA carrier)
T1 construct: also called BSA-cSNK
T1 sequence (P02769 25-607 limits assumed): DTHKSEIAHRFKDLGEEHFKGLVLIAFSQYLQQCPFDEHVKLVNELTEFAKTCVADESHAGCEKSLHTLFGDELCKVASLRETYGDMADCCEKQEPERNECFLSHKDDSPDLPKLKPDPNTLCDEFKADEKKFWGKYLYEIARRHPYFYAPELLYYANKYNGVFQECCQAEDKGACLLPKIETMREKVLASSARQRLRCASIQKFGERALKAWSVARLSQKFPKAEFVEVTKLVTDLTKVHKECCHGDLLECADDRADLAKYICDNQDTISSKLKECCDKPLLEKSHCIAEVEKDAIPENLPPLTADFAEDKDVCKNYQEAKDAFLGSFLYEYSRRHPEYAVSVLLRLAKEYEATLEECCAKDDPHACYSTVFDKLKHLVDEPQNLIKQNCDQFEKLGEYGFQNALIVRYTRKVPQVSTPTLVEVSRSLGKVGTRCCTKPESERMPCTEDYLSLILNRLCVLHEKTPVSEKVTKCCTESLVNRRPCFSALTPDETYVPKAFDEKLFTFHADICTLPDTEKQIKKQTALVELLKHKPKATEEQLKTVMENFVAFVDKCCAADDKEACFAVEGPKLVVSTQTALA
Test: BLI 2:1 fit, site 1; 6.25 nM row
Procedure: Biolayer interferometry (Octet […], ForteBio) was used to qualitatively/quantitatively assess the interactions between humanized versions of 5E3 and cSNK:BSA conjugate. […] MAbs were loaded onto sensors and then washed in PBST. Each sensor was associated with one of several cSNK:BSA standards (100 nM to 0 nM) and then washed in PBST. […] For each mAb analyzed, a 2:1 model provided the “best fit”.
binders and their reported pKd
pKd here: minus log base 10 of the concentration, concentration in moles per litre.

Use the examples below as a reference point.
binder	pKd
hu5E3-IgG2 (antibody, V domains shown, human IgG2/kappa; also called humanized 5E3 IgG2) VH: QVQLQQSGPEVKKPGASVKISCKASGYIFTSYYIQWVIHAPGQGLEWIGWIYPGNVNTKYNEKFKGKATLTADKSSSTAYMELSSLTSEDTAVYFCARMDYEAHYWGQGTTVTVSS VL: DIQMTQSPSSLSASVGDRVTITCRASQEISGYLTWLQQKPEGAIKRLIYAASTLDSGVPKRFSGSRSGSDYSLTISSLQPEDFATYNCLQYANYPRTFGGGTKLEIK	8.93
hu5E3-IgG1 (antibody, V domains shown, human IgG1/kappa; also called humanized 5E3 IgG1; IHA variant) VH: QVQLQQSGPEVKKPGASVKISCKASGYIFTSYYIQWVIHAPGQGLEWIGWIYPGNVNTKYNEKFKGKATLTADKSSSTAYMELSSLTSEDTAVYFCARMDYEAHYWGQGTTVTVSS VL: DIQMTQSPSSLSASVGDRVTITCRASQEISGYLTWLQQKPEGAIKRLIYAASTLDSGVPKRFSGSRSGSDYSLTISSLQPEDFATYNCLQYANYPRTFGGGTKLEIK	9.33
hu5E3-IgG4 (antibody, V domains shown, human IgG4/kappa; also called humanized 5E3 IgG4) VH: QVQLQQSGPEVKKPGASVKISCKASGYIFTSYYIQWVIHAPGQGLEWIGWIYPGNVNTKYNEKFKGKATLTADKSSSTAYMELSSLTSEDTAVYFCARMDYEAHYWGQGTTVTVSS VL: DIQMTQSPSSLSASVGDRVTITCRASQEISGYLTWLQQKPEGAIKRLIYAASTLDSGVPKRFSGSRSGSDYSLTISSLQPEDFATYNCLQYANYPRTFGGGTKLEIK	9.20

Query string: pKd lookup needed for murine monoclonal antibody 5E3 (antibody, V domains shown, mouse antibody of the 5E3 hybridoma; also called murine 5E3; m5E3) VH: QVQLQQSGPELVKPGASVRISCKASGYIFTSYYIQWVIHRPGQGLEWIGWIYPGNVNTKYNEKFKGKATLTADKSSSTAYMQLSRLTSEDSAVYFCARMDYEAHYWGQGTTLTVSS VL: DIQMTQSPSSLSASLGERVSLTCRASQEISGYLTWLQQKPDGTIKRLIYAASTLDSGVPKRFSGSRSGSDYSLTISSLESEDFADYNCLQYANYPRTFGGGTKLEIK , thanks.
Result string: 9.48
